Numbers sourced from ChEMBL document CHEMBL4177769.

biological target: Ectonucleoside triphosphate diphosphohydrolase 3 (Homo sapiens) (UniProt O75355); assay: Inhibition of human NTPDase3 at 100 uM using ATP as substrate preincubated for 3 mins followed by substrate addition measured after 10 mins by malachite green reagent-based assay
Sequence (O75355 whole entry): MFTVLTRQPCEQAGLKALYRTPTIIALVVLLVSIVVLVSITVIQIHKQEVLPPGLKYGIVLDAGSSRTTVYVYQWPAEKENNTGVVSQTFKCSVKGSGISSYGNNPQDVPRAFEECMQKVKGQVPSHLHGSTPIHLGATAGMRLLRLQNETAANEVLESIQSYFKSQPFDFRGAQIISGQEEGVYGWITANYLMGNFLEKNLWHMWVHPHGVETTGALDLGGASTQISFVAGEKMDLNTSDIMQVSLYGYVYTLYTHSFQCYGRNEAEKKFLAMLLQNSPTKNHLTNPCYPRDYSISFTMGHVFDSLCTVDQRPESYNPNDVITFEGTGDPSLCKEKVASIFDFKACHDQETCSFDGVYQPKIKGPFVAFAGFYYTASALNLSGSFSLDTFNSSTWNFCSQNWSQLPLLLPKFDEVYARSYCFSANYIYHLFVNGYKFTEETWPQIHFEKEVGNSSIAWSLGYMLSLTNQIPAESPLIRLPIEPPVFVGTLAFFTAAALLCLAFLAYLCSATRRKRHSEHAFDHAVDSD
Recorded inhibition, one value per entry.

Below, 2 compounds whose answers are already recorded.
COMPOUND	TESTED_SYSTEM	RESULT
O=c1ccn([C@@H]2O[C@H](COP(=S)(S)OP(=O)(O)CP(=O)(O)O)[C@@H](O)[C@H]2O)c(=O)[nH]1 (some centres undefined)	Ectonucleoside triphosphate diphosphohydrolase 3 (Homo sapiens) (UniProt O75355)	15%
O=c1ccn([C@@H]2O[C@H](COP(=S)(S)OP(=O)(O)OP(=O)(O)OP(=S)(S)OC[C@H]3O[C@@H](n4ccc(=O)[nH]c4=O)[C@H](O)[C@@H]3O)[C@@H](O)[C@H]2O)c(=O)[nH]1 (some centres undefined)	Ectonucleoside triphosphate diphosphohydrolase 3 (Homo sapiens) (UniProt O75355)	24%

Given the compound O=c1ccn([C@@H]2O[C@H](COP(=S)(S)OP(=O)(O)O)[C@@H](O)[C@H]2O)c(=O)[nH]1 (some centres undefined) and test system Ectonucleoside triphosphate diphosphohydrolase 3 (Homo sapiens) (UniProt O75355), the measured inhibition is 15%

###

experiment: Drug metabolism at 2 mM at pH 1.7 at room temperature after 20 days by 31P NMR method; assay type: physicochemical; conditions: read-out: Drug metabolism
MEASUREMENT_KIND: degraded at 480 h, 2000 µM (%)
Field: numeric (%). Do not append units.

Short answer for O=c1ccn([C@@H]2O[C@H](COP(=O)(O)OP(=O)(O)OP(=O)(O)O)[C@@H](O)[C@H]2O)c(=O)[nH]1 [URIDINE TRIPHOSPHATE] : degraded at 480 h, 2000 µM was 11

###

# reported inhibition; entries follow
target: Ectonucleotide pyrophosphatase/phosphodiesterase family member 1 (Homo sapiens) (UniProt P22413); experiment: Inhibition of human NPP1 at 100 uM using pNP-TMP as substrate preincubated for 3 mins followed by substrate addition measured after 15 mins relative to control
Sequence (P22413 whole entry): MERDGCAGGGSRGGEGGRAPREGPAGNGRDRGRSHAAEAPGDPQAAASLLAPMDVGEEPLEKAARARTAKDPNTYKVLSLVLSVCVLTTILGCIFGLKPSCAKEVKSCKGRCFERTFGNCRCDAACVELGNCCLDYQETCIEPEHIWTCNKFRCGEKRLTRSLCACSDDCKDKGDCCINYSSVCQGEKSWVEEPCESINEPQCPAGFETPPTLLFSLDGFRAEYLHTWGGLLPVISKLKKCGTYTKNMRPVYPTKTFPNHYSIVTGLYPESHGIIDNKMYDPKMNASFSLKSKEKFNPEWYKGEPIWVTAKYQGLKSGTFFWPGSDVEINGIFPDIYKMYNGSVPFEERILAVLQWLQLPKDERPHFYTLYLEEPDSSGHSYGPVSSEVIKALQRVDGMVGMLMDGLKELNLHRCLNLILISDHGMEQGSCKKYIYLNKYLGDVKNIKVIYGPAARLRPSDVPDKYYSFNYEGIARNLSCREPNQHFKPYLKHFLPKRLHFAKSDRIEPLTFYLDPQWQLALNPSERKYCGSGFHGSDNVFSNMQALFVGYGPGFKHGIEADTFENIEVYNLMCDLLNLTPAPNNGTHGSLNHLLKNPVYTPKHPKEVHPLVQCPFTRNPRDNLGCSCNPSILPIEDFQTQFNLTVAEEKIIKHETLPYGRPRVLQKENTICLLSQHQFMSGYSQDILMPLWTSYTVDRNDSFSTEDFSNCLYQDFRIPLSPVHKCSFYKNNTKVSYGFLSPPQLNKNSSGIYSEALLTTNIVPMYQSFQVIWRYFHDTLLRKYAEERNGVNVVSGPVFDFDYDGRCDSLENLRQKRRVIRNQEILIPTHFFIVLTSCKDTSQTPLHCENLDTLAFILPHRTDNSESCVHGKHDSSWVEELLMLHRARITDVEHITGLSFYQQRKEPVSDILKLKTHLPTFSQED

Some molecules with known inhibition results, for comparison:
MOLECULE	inhibition
O=c1ccn([C@@H]2O[C@H](COP(=S)(S)OP(=O)(O)CP(=O)(O)O)[C@@H](O)[C@H]2O)c(=O)[nH]1 (some centres undefined)	80 to 100%
O=c1ccn([C@@H]2O[C@H](COP(=S)(S)OP(=O)(O)OP(=O)(O)O)[C@@H](O)[C@H]2O)c(=O)[nH]1 (some centres undefined)	100%
O=c1ccn([C@@H]2O[C@H](COP(=S)(S)OP(=O)(O)O)[C@@H](O)[C@H]2O)c(=O)[nH]1 (some centres undefined)	80 to 100%

Continue with the next molecule.
# molecule O=c1ccn([C@@H]2O[C@H](COP(=S)(S)OP(=O)(O)OP(=O)(O)OP(=S)(S)OC[C@H]3O[C@@H](n4ccc(=O)[nH]c4=O)[C@H](O)[C@@H]3O)[C@@H](O)[C@H]2O)c(=O)[nH]1 (some centres undefined) ; its inhibition = 80 to 100%

###

# reported degraded at 120 h, 2000 µM; entries follow
experiment: Drug metabolism at 2 mM at basic pH after 5 days by 31P NMR method; assay type: physicochemical; conditions: read-out: Drug metabolism
Express it in %; write the number only.

COMPOUND	UNIT_ANNOTATION	READOUT_NUMBER
O=c1ccn([C@@H]2O[C@H](COP(=S)(S)OP(=O)(O)OP(=O)(O)O)[C@@H](O)[C@H]2O)c(=O)[nH]1 (some centres undefined)	%	13
O=c1ccn([C@@H]2O[C@H](COP(=S)(S)OP(=O)(O)OP(=O)(O)OP(=S)(S)OC[C@H]3O[C@@H](n4ccc(=O)[nH]c4=O)[C@H](O)[C@@H]3O)[C@@H](O)[C@H]2O)c(=O)[nH]1 (some centres undefined)	%	9
O=c1ccn([C@@H]2O[C@H](COP(=S)(S)OP(=O)(O)CP(=O)(O)O)[C@@H](O)[C@H]2O)c(=O)[nH]1 (some centres undefined)	%	8

Now take the following compound into account.
Measured degraded at 120 h, 2000 µM, O=c1ccn([C@@H]2O[C@H](COP(=O)(O)OP(=O)(O)OP(=O)(O)O)[C@@H](O)[C@H]2O)c(=O)[nH]1 [URIDINE TRIPHOSPHATE] : 8
